subject.of.test: Gal(b1-4)GlcNAc(b1-3)Gal(b1-4)GlcNAc(b1-3)Gal(b1-4)GlcNAc(b1-3)Gal(b1-4)GlcNAc(b1-3)Gal(b1-4)GlcNAc(b1-3)Gal(b1-4)GlcNAc(b1-2)Man(a1-3)[Gal(b1-4)GlcNAc(b1-3)Gal(b1-4)GlcNAc(b1-3)Gal(b1-4)GlcNAc(b1-3)Gal(b1-4)GlcNAc(b1-3)Gal(b1-4)GlcNAc(b1-3)Gal(b1-4)GlcNAc(b1-2)Man(a1-6)]Man(b1-4)GlcNAc(b1-4)GlcNAc
assay.name: glycan array binding signal (z-score within array); higher = stronger binding
assay.setup: glycan notation: IUPAC condensed, linker removed
The entries come from a sample that favours the strongest signals as a whole.

binder: CPA (Cicer arietinum) (protein) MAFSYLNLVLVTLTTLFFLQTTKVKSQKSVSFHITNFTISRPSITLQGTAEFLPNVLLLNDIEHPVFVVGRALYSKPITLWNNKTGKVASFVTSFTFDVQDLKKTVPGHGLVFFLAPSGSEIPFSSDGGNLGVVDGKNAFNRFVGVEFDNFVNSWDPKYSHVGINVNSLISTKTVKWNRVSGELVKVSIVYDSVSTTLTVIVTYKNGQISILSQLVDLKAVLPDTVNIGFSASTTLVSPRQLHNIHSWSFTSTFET
glycan array binding signal (z-score): 3.7
//
binder: HPL (Tachypleus tridentatus) (protein) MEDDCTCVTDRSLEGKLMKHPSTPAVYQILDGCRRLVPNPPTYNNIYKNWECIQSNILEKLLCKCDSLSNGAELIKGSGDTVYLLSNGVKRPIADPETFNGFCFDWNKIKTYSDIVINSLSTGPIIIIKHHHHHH
glycan array binding signal (z-score): -0.206
//
binder: LSL-150 (Laetiporus sulphureus), Q7Z8V1 (protein) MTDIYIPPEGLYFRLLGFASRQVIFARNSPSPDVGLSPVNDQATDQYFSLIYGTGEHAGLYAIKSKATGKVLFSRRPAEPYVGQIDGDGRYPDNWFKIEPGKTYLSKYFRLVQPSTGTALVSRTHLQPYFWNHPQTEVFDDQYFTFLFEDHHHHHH
glycan array binding signal (z-score): 5.13

Value source: the supplement of paper PMC8728848
